From: PubChem BioAssay (EPA / NIEHS)

# assay details: ATG_AP_1_CIS: Attagene CIS-FACTORIAL HepG2 Assay for human Activator Protein 1 (AP-1) (AID 2282931)
# applied conditions: HepG2 Attagene cis-factorial AP-1 reporter mRNA; actives raise or lower the signal
Calls of active or inactive are those of the source. How the source made its calls: active means hit-call score of the fitted dose curve at least 0.9, where 1 is the maximum; inactive means score below 0.9. Peptide text beside a SMILES is read from it.
Output constraint: value belongs to active, inactive

Field: outcome | Entry: O=C(Nc1ccccc1)c1cc(Cl)ccc1O active

Note, next up: CC(C)C(=O)OCCOc1ccccc1 inactive

Note, next up: C=C(C)[C@@H]1CC=C(C)CC1 inactive

Note, next up: C=CC(=O)OCCCCCCCC(C)C inactive

Note, next up: Nc1ccc(C(=O)OCCCOC(=O)c2ccc(N)cc2)cc1 inactive

Note, next up: CCC1COC(=O)O1 (configuration not stated) inactive

Note, next up: CC(C)=CCl inactive

Note, next up: CC(C)[N+](C)(CCOC(=O)C1c2ccccc2Oc2ccccc21)C(C)C inactive

Note, next up: CC(=O)OCCc1ccccc1 inactive

Note, next up: CCCCC(CC)COS(=O)(=O)O (configuration not stated) inactive

Note, next up: CC(C)(C)C1CCC(=O)CC1 inactive

Note, next up: O=C(Oc1ccccc1)c1ccccc1O inactive

Note, next up: CCCCCCCCC(CO)CCCCCC (configuration not stated) inactive

Note, next up: CC1(C)CCC[C@]2(C)[C@H]3CC(=O)O[C@]3(C)CC[C@@H]12 inactive

Note, next up: CCCC1CCCC(=O)O1 (configuration not stated) inactive

Note, next up: C=CC(=O)OCCCCCCCCCC inactive

Note, next up: CCCCCCCCCCCC(=O)OCC inactive

Note, next up: CC(=O)C(C)C inactive

Note, next up: Oc1c(Cl)cc(Cl)c(Cl)c1Cl inactive

Note, next up: CC(=O)/C=C/C1C(C)=CCCC1(C)C (configuration not stated) inactive

Note, next up: C[Si]1(C)O[Si](C)(C)O[Si](C)(C)O[Si](C)(C)O[Si](C)(C)O1 inactive

Note, next up: Fc1ccc(Br)cc1 inactive

Note, next up: C[Si](C)(C)N[Si](C)(C)C inactive

Note, next up: CCCCCCOc1ccc(N)cc1 inactive

Note, next up: CCCCOCC(C)O (configuration not stated) inactive

Note, next up: C=C[Si](OCCOC)(OCCOC)OCCOC inactive

Note, next up: Cc1cc(C)c(C=O)c(C)c1 inactive

Note, next up: COC(=O)[C@H](Cc1ccccc1)NC(=O)[C@@H](N)CC(=O)O (H-Asp-Phe-OMe) inactive

Note, next up: CN1CCN(C)CC1 inactive

Note, next up: O=S(=O)(O)c1ccc(N=Nc2c(O)ccc3ccccc23)cc1 inactive

Note, next up: CCN(CC)c1cccc(C)c1 inactive

Note, next up: CC(C)c1ccc2ncccc2c1 inactive

====

# Read-out: Interleukin 17F (IL17F), IL17F (gene 112744)
# assay details: BSK_BT_xIL17F: BioMAP Diversity Plus: BT Assay for Interleukin 17F (IL17F) Biomarker Activity (AID 2284243)
# applied conditions: primary human B cells with PBMC
Calls of active or inactive are those of the source. Rule for the calls: active = hit-call score of the fitted dose curve at least 0.9, where 1 is the maximum; inactive = score below 0.9.
Output constraint: value belongs to 1 (yes) = active, 0 (no) = inactive

Field: outcome | Entry: CCC1(C)C(=O)N(Cl)C(=O)N1Cl (stereo unspecified) 0 (no)

Note, next up: CC(Cl)COP(=O)(OCC(C)Cl)OCC(C)Cl (stereo unspecified) 0 (no)

Note, next up: CCc1cccc(C)c1N(C(=O)CS(=O)(=O)O)C(C)COC (stereo unspecified) 0 (no)

Note, next up: O=C(O)C(F)(F)C(F)(F)C(F)(F)C(F)(F)C(=O)O 0 (no)

Note, next up: c1ccc2c(c1)[nH]c1ccccc12 0 (no)

Note, next up: CCCCC1C(=O)N(c2ccccc2)N(c2ccccc2)C1=O 0 (no)

Note, next up: C=CC(=O)OCC(C)OCC(C)OCC(C)OC(=O)C=C (stereo unspecified) 1 (yes)

Note, next up: CCOC(=O)C1=NN(c2ccc(Cl)cc2Cl)C(C)(C(=O)OCC)C1 (stereo unspecified) 0 (no)

Note, next up: C=CCCCCCCCCC=O 0 (no)

Note, next up: C=CC(=O)NC(C)(C)C 0 (no)

Note, next up: Fc1ccc(Br)cc1 0 (no)

====

# assay details: ATG_M_32_CIS: Attagene CIS-FACTORIAL HepG2 Assay for M32 Transcription Factor (Internal Marker) (AID 2282949);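 further: background control marker of the multiplexed CIS panel rather than a real target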
# applied conditions: HepG2 Attagene cis-factorial M32 reporter, mRNA; actives raise or lower the signal
The source made the active and inactive calls. The calls were made as follows: active = hit-call score of the fitted dose curve at least 0.9, where 1 is the maximum; inactive = score below 0.9.
test readout: outcome

molecule: CCCCCCO
test readout: outcome
reported result: inactive
--
molecule: CCOC(=O)CC(=O)c1ccccc1
test readout: outcome
reported result: inactive
--
molecule: CC1OC(=O)C(C)OC1=O (centres undefined)
test readout: outcome
reported result: inactive
--
molecule: CC(CCC(=O)O)(c1ccc(O)cc1)c1ccc(O)cc1
test readout: outcome
reported result: inactive

GET /values?readout=outcome&item= CC(=O)OC1CCCCC1 inactive

Note, next up: CCCCCOC(=O)CCCCC inactive

Note, next up: C=CC(=O)OCCCCCCOC(=O)C=C inactive

Note, next up: CCN1CN(CC)CN(CC)C1 inactive

Note, next up: COC(=O)c1ccccc1C inactive

Note, next up: C=C(C)C(=O)OCC(O)COc1ccc(C(C)(C)c2ccc(OCC(O)COC(=O)C(=C)C)cc2)cc1 (centres undefined) inactive

Note, next up: Cn1ccnc1 inactive

====

# tested target: Aryl hydrocarbon receptor (Homo sapiens)
# assay details: ATG_Ahr_CIS: Attagene CIS-FACTORIAL HepG2 Assay for human Aryl Hydrocarbon Receptor (Ahr) (AID 2282930)
# applied conditions: HepG2 AhR cis-factorial reporter transcription; actives raise or lower the signal
Active and inactive are the calls of the source. How the source made its calls: active means hit-call score of the fitted dose curve at least 0.9, where 1 is the maximum; inactive means score below 0.9.
Output constraint: value belongs to active, inactive

Field: outcome | Entry: C=C(C)C1CC=C(C)C(OC(C)=O)C1 (stereo not given) inactive

Note, next up: CCCCC/C=C\C/C=C\CCCCCCCC(=O)O active

Note, next up: CCCCCCCC(=O)OCC inactive

Note, next up: CC=CC(=O)OCC(C)C inactive

Note, next up: CC(C)(CO)COC(=O)C(C)(C)CO inactive

====

# assay details: ATG_BRE_CIS: Attagene CIS-FACTORIAL HepG2 Assay for human Bone Morphogenetic Protein (BMP) Response Element (BRE) (AID 2282933)
# applied conditions: HepG2 BMP response element reporter, Attagene transcription factor profiling; actives raise or lower the signal
Active and inactive are the calls of the source. Rule for the calls: active = hit-call score of the fitted dose curve at least 0.9, where 1 is the maximum; inactive = score below 0.9.
test readout: AC50

Example entries begin here.
compound: CCC(C)N (stereo unspecified)
reported result: inactive
--
compound: CC(C)CCOCc1ccccc1
reported result: inactive
--
compound: CC/C=C\C/C=C\C/C=C\CCCCCCCC(=O)OC
reported result: 167 µM (active)
--
compound: O=C(O)CCCC(=O)O
reported result: inactive
--
compound: C=C(C)C(=O)OCCCCCCCCCCCC
reported result: inactive

GET /values?readout=AC50&item= CC(C)C(=O)OCCOc1ccccc1 inactive

====

# Read-out: Transforming growth factor beta 1 (TGFb1), TGFB1 (gene 7040)
# assay details: BSK_KF3CT_TGFb1: BioMAP Diversity Plus: KF3CT Assay for Transforming growth factor beta 1 (TGFb1) Biomarker Activity (AID 2283072)
# applied conditions: primary human keratinocytes with fibroblasts; actives raise or lower the signal
The source made the active and inactive calls. Rule for the calls: active = hit-call score of the fitted dose curve at least 0.9, where 1 is the maximum; inactive = score below 0.9.
Output constraint: value belongs to YES for active, NO for inactive

Field: outcome | Entry: CCC1(C)C(=O)N(Cl)C(=O)N1Cl (centres undefined) NO

Note, next up: CC(C)[N+](C)(CCOC(=O)C1c2ccccc2Oc2ccccc21)C(C)C NO

Note, next up: CC=C(C)C(C)=O NO

Note, next up: Oc1ccc(/C=C/c2cc(O)cc(O)c2)cc1 NO

Note, next up: C=CC(=O)NCOCCCC NO

Note, next up: O=C1CCCCCCCCCCC1 NO

Note, next up: CC/C=C\C/C=C\C/C=C\CCCCCCCC(=O)OC YES

Note, next up: CCCCCCOC(=O)CCCCC(=O)OCCCCCC NO

Note, next up: Clc1cc(Cl)c(Cl)c(Cl)c1Cl NO

====

# Read-out: Actin alpha 1 (ACTA1), ACTA1 (gene 58)
# assay details: BSK_MyoF_ACTA1: BioMAP Diversity Plus: MyoF Assay for Actin alpha 1 (ACTA1) Biomarker Activity (AID 2284244)
# applied conditions: primary human lung fibroblasts
The source made the active and inactive calls. Rule for the calls: active = hit-call score of the fitted dose curve at least 0.9, where 1 is the maximum; inactive = score below 0.9.
Output constraint: value belongs to active, inactive

Field: outcome | Entry: CC(C)[N+](C)(CCOC(=O)C1c2ccccc2Oc2ccccc21)C(C)C inactive

Note, next up: C=CC(=O)NC(C)(C)C inactive

Note, next up: C=CC(=O)OCCCCCCOC(=O)C=C active

Note, next up: CCNc1nc(NC(C)(C)C)nc(OC)n1 inactive

Note, next up: c1ccc2c(c1)[nH]c1ccccc12 inactive
